EXPERIMENT: Phase I human trial: plasma pharmacokinetics of EA-230
Assay type: in vivo
TEST_PARAMETERS: plasma, iv, 3 mg/kg, 3 mg/kg i.v. 2-min infusion, N = 6, arithmetic mean ± SD
Peptide text beside a SMILES is read from it.

{"columns": ["MOLECULE", "Cmax"],
 "data": [
  ["CC(C)[C@H](NC(=O)CNC(=O)[C@H](CCC(N)=O)NC(=O)[C@H](C)N)C(=O)O [EA-230, H-Ala-Gln-Gly-Val-OH.xAcOH] (H-AQGV-OH)", "0.132 µg/mL"]
]}

---

EXPERIMENT: Phase I human trial: plasma pharmacokinetics of EA-230
Format: in vivo
TEST_PARAMETERS: plasma, iv, 1 mg/kg, 1 mg/kg i.v. 2-min infusion, N = 6, arithmetic mean ± SD
Experimental: Part 1: A Phase I, double blind, randomized, single dose, placebo controlled, dose escalation study with 4 groups of 8 subjects (Groups 1-4). In each group 6 subjects were randomized to active medication and 2 to placebo. […] After all subjects had completed Day 7 assessments, the safety review board decided on continuation of the study until the maximum tolerated dose had been assessed or the highest dose. […] Plasma concentration time profiles of EA-230 were analyzed. […]
Peptide text beside a SMILES is read from it.
MEASUREMENT_TYPE: Cmax (µg/mL)

{"columns": ["COMPOUND", "MEASUREMENT_TYPE", "MEASURE_UNIT", "REPORTED"],
 "data": [
  ["CC(C)[C@H](NC(=O)CNC(=O)[C@H](CCC(N)=O)NC(=O)[C@H](C)N)C(=O)O [EA-230, H-Ala-Gln-Gly-Val-OH.xAcOH] (H-AQGV-OH)", "Cmax", "µg/mL", 0.0325]
]}
